condition-details: in chloroform, 313.15 K

{"columns": ["query-smiles", "solubility (mole fraction)"],
 "data": [
  ["CC(=O)O[C@H]1NC(=O)[C@@H]1[C@@H](C)O[Si](C)(C)C(C)(C)C", 0.308]
]}

----------
condition-details: in n-hexane, 318.15 K

{"columns": ["query-smiles", "solubility (mole fraction)"],
 "data": [
  ["CC(=O)O[C@H]1NC(=O)[C@@H]1[C@@H](C)O[Si](C)(C)C(C)(C)C", 0.0161]
]}

----------
condition-details: in n-hexane, 308.15 K

{"columns": ["query-smiles", "solubility (mole fraction)"],
 "data": [
  ["CC(=O)O[C@H]1NC(=O)[C@@H]1[C@@H](C)O[Si](C)(C)C(C)(C)C", 0.00813]
]}

Reference for the values: BigSolDB 2.1
